The measured values listed here are drawn from paper PMC10150588.

- Target Under Test: BRD3 ET (Homo sapiens)
- Sequence (Q15059 554-640): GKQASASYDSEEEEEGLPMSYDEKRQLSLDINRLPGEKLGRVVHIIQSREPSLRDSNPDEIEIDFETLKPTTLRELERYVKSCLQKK
- Assay Name: Isothermal titration calorimetry, peptide binding to BRD3 ET
- Parameters: species or system murine
- Particulars: ITC, 20 mM Tris, 150 mM NaCl, 1 mM TCEP, pH 7.5, 25 °C
No end group written: not given here.
Readout Label: pKd
Give bare numbers, as −log10 of the molar value.

Record summary for SRLTWRVQRSQNPLKIRLTREAP [TP] : reported pKd = 7.05

====

- Target Under Test: BRD3 ET (Homo sapiens)
- Assay Name: Isothermal titration calorimetry, peptide binding to BRD3 ET
- Parameters: species or system murine
- Particulars: ITC, 20 mM Tris, 150 mM NaCl, 1 mM TCEP, pH 7.5, 10 °C
No end group written: not given here.
Readout Label: Kd (nM)
Numbers only, in nM.

Record summary for SRLTWRVQRSQNPLKIRLTREAP [TP] : reported Kd = 13
